These data points were gathered from patent US20160046684A1.

Let's look at some molecules and their measured Km.
Test system: PTP1B
Test: Phosphatase activity of PTP1B constructs against pNPP (enzyme assay)
Format: biochemical, human
Details: pNPP substrate, pH 7.5, 0.015 μM PTP1B (FIG. 27, 32A, 32B)
Supply the numeric figure in µM, leaving out any unit text.

{"columns": ["MOLECULE", "VALUE UNIT", "Km"],
 "data": [
  ["PTP1BY153F: PTP1B1-301 mutant with mutation in the L11 loop (protein, UniProt P18031 1-301, looked up, variant Y153F) MEMEKEFEQIDKSGSWAAIYQDIRHEASDFPCRVAKLPKNKNRNRYRDVSPFDHSRIKLHQEDNDYINASLIKMEEAQRSYILTQGPLPNTCGHFWEMVWEQKSRGVVMLNRVMEKGSLKCAQYWPQKEEKEMIFEDTNLKLTLISEDIKSYFTVRQLELENLTTQETREILHFHYTTWPDFGVPESPASFLNFLFKVRESGSLSPEHGPVVVHCSAGIGRSGTFCLADTCLLLMDKRKDPSSVDIKKVLLEMRKFRMGLIQTADQLRFSYLAVIEGAKFIMGDSSVQDQWKELSHEDLEP", "µM", 620]
]}

Let's switch to this molecule now.
Task: State, in one line, measured Km of PTP1BL195A: PTP1B1-301 mutant with mutation in the α3 helix (protein, UniProt P18031 1-301, looked up, variant L195A) MEMEKEFEQIDKSGSWAAIYQDIRHEASDFPCRVAKLPKNKNRNRYRDVSPFDHSRIKLHQEDNDYINASLIKMEEAQRSYILTQGPLPNTCGHFWEMVWEQKSRGVVMLNRVMEKGSLKCAQYWPQKEEKEMIFEDTNLKLTLISEDIKSYYTVRQLELENLTTQETREILHFHYTTWPDFGVPESPASFLNFAFKVRESGSLSPEHGPVVVHCSAGIGRSGTFCLADTCLLLMDKRKDPSSVDIKKVLLEMRKFRMGLIQTADQLRFSYLAVIEGAKFIMGDSSVQDQWKELSHEDLEP
Result: 290
